The measured values listed here are drawn from ChEMBL document CHEMBL3414499.

target: Retinaldehyde dehydrogenase 3 (Homo sapiens) (UniProt P47895); test: Activation of recombinant human ALDH1A3 using propionaldehyde as substrate at 20 uM preincubated for 2 mins with NAD+ followed by substrate addition by UV-Vis spectrophotometric analysis
Sequence (P47895 whole entry): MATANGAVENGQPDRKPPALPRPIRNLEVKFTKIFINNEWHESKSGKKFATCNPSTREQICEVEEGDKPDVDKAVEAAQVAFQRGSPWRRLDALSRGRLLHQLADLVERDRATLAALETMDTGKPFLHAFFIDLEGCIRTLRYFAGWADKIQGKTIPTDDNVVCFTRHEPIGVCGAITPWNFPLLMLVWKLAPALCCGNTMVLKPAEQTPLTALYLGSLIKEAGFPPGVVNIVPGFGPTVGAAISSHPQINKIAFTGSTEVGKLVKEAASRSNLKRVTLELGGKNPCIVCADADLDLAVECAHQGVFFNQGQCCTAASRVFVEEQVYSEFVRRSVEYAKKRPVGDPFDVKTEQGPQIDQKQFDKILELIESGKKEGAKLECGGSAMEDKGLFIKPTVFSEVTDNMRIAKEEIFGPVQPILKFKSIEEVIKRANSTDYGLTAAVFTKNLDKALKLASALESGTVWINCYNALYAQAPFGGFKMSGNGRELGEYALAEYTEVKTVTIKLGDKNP
measurementKind: Activity

>>> result("CCN1CCN(Cc2nc3c(c(=O)n(C)c(=O)n3C)n2CC(=O)c2ccccc2)CC1")
"< 10%"
>>> result("CCN1CCN(Cc2nc3c(c(=O)n(C)c(=O)n3C)n2CCC(C)C)CC1")
"< 10%"
>>> result("CC(C)CCn1c(CN2CCC(C(N)=O)CC2)nc2c1c(=O)n(C)c(=O)n2C")
"< 10%"
